- System: Jurkat
- RUN_DESCRIPTION: Cytotoxicity by MTT assay
- Type: cell-based, human
- EXPERIMENTAL_SETUP: concentration resulting in 50% cell survival, MTT, 4 h; read-out: Cytotoxicity (C50%) Jurkat
METRIC_NAME: IC50 (µM)
I only need the number, in µM, no unit after it.

// IC50 (Jurkat) for Oc1ccccc1Oc1c(F)c(F)c(-c2c(F)c(F)c(Oc3ccccc3O)c(F)c2F)c(F)c1F = 63.4

###

- System: Staphylococcus aureus ATCC 29213
- RUN_DESCRIPTION: Antibacterial killing, 96-well turbidimetric (modified vCC) assay
- Assay type: cell-based
- EXPERIMENTAL_SETUP: Table S3; concentration at which 100% killing occurred, no bacterial regrowth; No = not active
METRIC_NAME: active against S.aureus (IC100%)

Some solved cases for reference:
COMPOUND: OCCSc1ccc(-c2ccc(SCCO)cc2)cc1
active against S.aureus (IC100%): No
--
COMPOUND: CC[n+]1c(/C=C2C=C(/C=C/N(C)c3ccccc3)CC(C)(C)C/2)sc2ccccc21
active against S.aureus (IC100%): 15,625 µM
--
COMPOUND: CN(C)c1ccc(/C=C/c2cc(C(C)(C)C)[o+]c(C(C)(C)C)c2)cc1
active against S.aureus (IC100%): 3,9 µM
--
COMPOUND: FC(F)(F)c1cccc(N2CCN(CCc3ccccc3)CC2)c1
active against S.aureus (IC100%): No
--
COMPOUND: O=Cc1ccc2c(c1)C1c3ccccc3C2c2ccccc21
active against S.aureus (IC100%): No

The measured active against S.aureus (IC100%) associated with Cc1cc(C2(c3ccc(O)c(C)c3)C(=O)N(Cc3ccccc3)c3ccccc32)ccc1O reads 15,625 µM

The measured active against S.aureus (IC100%) associated with CN(C)c1ccc(C=C2C=C(c3ccccc3)OC(c3ccccc3)=C2)cc1 reads 500 µM

The measured active against S.aureus (IC100%) associated with OC(c1cccc2ccccc12)c1c2ccccc2cc2ccccc12 (stereo not shown) reads 3,9 µM

The measured active against S.aureus (IC100%) associated with CC[n+]1c(/C=C/C=C2\N(C)c3ccccc3C2(C)C)sc2ccccc21.[O-][Cl+3]([O-])([O-])[O-] reads 7,8 µM

The measured active against S.aureus (IC100%) associated with OCc1ccc2c(c1)C1c3ccccc3C2c2ccccc21 reads 500 µM

###

- RUN_DESCRIPTION: Cytotoxicity by MTT assay
- Format: cell-based, human
- EXPERIMENTAL_SETUP: human, Caco-2 cells; concentration resulting in 50% cell survival, MTT, 24 h; read-out: Cytotoxicity (C50%) Caco-2
compounds and their reported IC50 at 24 h
I only need the number, in µM, no unit after it.

RECORD_SMILES: CN1/C(=C/C=C/c2cc(-c3ccccc3)cc(-c3ccccc3)[o+]2)C(C)(C)c2ccccc21
UNIT_OF_MEASUREMENT: µM
IC50 at 24 h: 2.7

Would you kindly look at the next entry?
The measured IC50 at 24 h associated with CN(C)c1ccc(/C=C/c2cc(-c3ccccc3)[o+]c(-c3ccccc3)c2)cc1 reads 8.9

###

- RUN_DESCRIPTION: Surface Plasmon Resonance binding to immobilized 3-Lipid II
- EXPERIMENTAL_SETUP: immobilized 3-Lipid II, SPR
molecules and their reported Kd
Kindly write the number and append the unit.

Some solved cases for reference:
RECORD_SMILES: CC[n+]1c(/C=C/C=C2C=C(/C=C/N(C)c3ccccc3)CC(C)(C)C/2)sc2ccccc21.[I-]
Kd: 3.64 µM
//
RECORD_SMILES: CN1/C(=C/C=C/c2cc(-c3ccccc3)cc(-c3ccccc3)[o+]2)C(C)(C)c2ccccc21
Kd: 1.71 µM
//
RECORD_SMILES: CN(C)c1ccc(/C=C/c2cc(C(C)(C)C)[o+]c(C(C)(C)C)c2)cc1
Kd: 4.26 µM
//
RECORD_SMILES: Oc1ccc2ccccc2c1C(c1ccc(Cl)cc1)c1c(O)ccc2ccccc12
Kd: 39.5 µM

The measured Kd associated with Oc1ccccc1Oc1c(F)c(F)c(-c2c(F)c(F)c(Oc3ccccc3O)c(F)c2F)c(F)c1F reads 59.6 µM

###

- Test system: Staphylococcus aureus ATCC 29213
- RUN_DESCRIPTION: Antibacterial killing, 96-well turbidimetric (modified vCC) assay
- Assay type: cell-based
- EXPERIMENTAL_SETUP: Table S3; concentration at which 100% killing occurred, no bacterial regrowth; No = not active
METRIC_NAME: active against S.aureus (IC100%)

Some solved cases for reference:
MOLECULE: CCn1c2ccccc2c2cc(N/C=C(\C#N)c3nc(-c4ccc(C)cc4C)cs3)ccc21
STUDY_TARGET: Staphylococcus aureus ATCC 29213
READOUT_VALUE: No

MOLECULE: Cc1cc2c(cc1C)CSC(c1ccc(O)cc1)SC2
STUDY_TARGET: Staphylococcus aureus ATCC 29213
READOUT_VALUE: No

MOLECULE: Cc1ccc(CN2CCC(N3CCN(c4ccccc4F)CC3)CC2)cc1
STUDY_TARGET: Staphylococcus aureus ATCC 29213
READOUT_VALUE: No

MOLECULE: Fc1ccccc1CN1CCC(N2CCN(c3ccccc3)CC2)CC1
STUDY_TARGET: Staphylococcus aureus ATCC 29213
READOUT_VALUE: No

MOLECULE: C(#Cc1ccccc1)CN(CC#Cc1ccccc1)CCCCCCN(CC#Cc1ccccc1)CC#Cc1ccccc1.Cl.Cl
STUDY_TARGET: Staphylococcus aureus ATCC 29213
READOUT_VALUE: No

MOLECULE: OCC1c2ccccc2-c2ccccc21
STUDY_TARGET: Staphylococcus aureus ATCC 29213
READOUT_VALUE: No

Would you kindly look at the next entry?
The measured active against S.aureus (IC100%) associated with CC[n+]1c(/C=C/C=C2C=C(/C=C/N(C(C)=O)c3ccccc3)CC(C)(C)C/2)sc2ccccc21.[I-] reads 125 µM

###

- Test system: Caco-2
- RUN_DESCRIPTION: Cytotoxicity by MTT assay
- Format: cell-based, human
- EXPERIMENTAL_SETUP: Table S3; No = not cytotoxic

COMPOUND: Fc1ccccc1CN1CCC(N2CCN(c3ccccc3)CC2)CC1
STUDY_TARGET: Caco-2
cytotoxic for Caco II (C50% survival): No

COMPOUND: CC(CCc1ccc(O)cc1)NCCc1ccccc1 (stereo not shown) [Compound 5460400, 4-{3-[(2-phenylethyl)amino]butyl}phenol]
STUDY_TARGET: Caco-2
cytotoxic for Caco II (C50% survival): No

COMPOUND: OC(c1cccc2ccccc12)c1c2ccccc2cc2ccccc12 (stereo not shown)
STUDY_TARGET: Caco-2
cytotoxic for Caco II (C50% survival): No

COMPOUND: OCCSc1ccc(-c2ccc(SCCO)cc2)cc1
STUDY_TARGET: Caco-2
cytotoxic for Caco II (C50% survival): No

###

- System: Caco-2
- RUN_DESCRIPTION: Cytotoxicity by MTT assay
- Format: cell-based, human
- EXPERIMENTAL_SETUP: concentration resulting in 50% cell survival, MTT, 24 h; read-out: Cytotoxicity (C50%) Caco-2
METRIC_NAME: IC50
Kindly write the number and append the unit.

// IC50 (Caco-2) for Oc1ccccc1Oc1c(F)c(F)c(-c2c(F)c(F)c(Oc3ccccc3O)c(F)c2F)c(F)c1F [Compound 1611-0203] = 4.2 µM

###

compounds and their reported IC50
- Test system: Caco-2
- RUN_DESCRIPTION: Cytotoxicity by MTT assay
- Assay type: cell-based, human
I only need the number, in µM, no unit after it.

COMPOUND: CN(C)c1ccc(C2C=C(c3ccccc3)Oc3ccccc32)cc1 (centres unmarked)
IC50 (µM): 25.9
--
COMPOUND: O=C(O)C(=O)O.c1ccc(CCCN2CCC(N3CCN(c4ccccc4)CC3)CC2)cc1
IC50 (µM): 168
--
COMPOUND: CCCCN(CC#Cc1ccc(C#CCN(CCCC)CCCC)cc1)CCCC.Cl.Cl
IC50 (µM): 366

The measured IC50 associated with CN(C)c1ccc(C=CCN2CCN(Cc3ccccc3)CC2)cc1 reads 132

###

- System: Staphylococcus aureus ATCC 29213
- RUN_DESCRIPTION: Antibacterial killing, 96-well turbidimetric (modified vCC) assay
- Format: cell-based
- EXPERIMENTAL_SETUP: Table S3; concentration at which 100% killing occurred, no bacterial regrowth; No = not active
METRIC_NAME: active against S.aureus (IC100%)

Some solved cases for reference:
MOLECULE: CN(C)c1ccc(C=CCN2CCN(Cc3ccccc3)CC2)cc1 [Compound 5429346]
active against S.aureus (IC100%): 500 µM
--
MOLECULE: CN1/C(=C/C=C2/SC(=S)N(c3ccccc3)C2=O)C(C)(C)c2ccccc21 [Compound 2101-0102]
active against S.aureus (IC100%): No
--
MOLECULE: FC(F)(F)c1cccc(N2CCN(Cc3ccc4c(c3)Cc3ccccc3-4)CC2)c1 [Compound 5418391]
active against S.aureus (IC100%): No
--
MOLECULE: CCC[N+](CC#CCO)(CC#Cc1ccccc1)CCC [Compound 4636-0141]
active against S.aureus (IC100%): No

The measured active against S.aureus (IC100%) associated with O=C(CSc1nc(-c2ccccc2)c(-c2ccccc2)n1-c1ccccc1)N1CCCc2ccccc21 [ST4098270] reads No

The measured active against S.aureus (IC100%) associated with CC(CCc1ccc(O)cc1)NCCc1ccccc1 (stereo not drawn) [Compound 5460400, 4-{3-[(2-phenylethyl)amino]butyl}phenol] reads No

The measured active against S.aureus (IC100%) associated with CN1CCC(N(Cc2ccccc2)C(=O)CCc2ccc3c(c2)n(C)c(=O)n3C)CC1 [SYN22879441] reads No

The measured active against S.aureus (IC100%) associated with CCN(CC)c1ccc(CN2CCN(c3cccc(C(F)(F)F)c3)CC2)cc1 [Compound 5427129] reads (No)

The measured active against S.aureus (IC100%) associated with CCN(CC)CCCN1CN(CCCN(CC)CC)CN(CCCN(CC)CC)C1 [Compound 000A-0859] reads 500 µM

The measured active against S.aureus (IC100%) associated with CN(C)c1ccc(C2C=C(c3ccccc3)Oc3ccccc32)cc1 (stereo not drawn) [55870/1] reads 250 µM

The measured active against S.aureus (IC100%) associated with Oc1ccc(O)c2c1C1c3ccccc3C2c2ccccc21 [Compound 5190620] reads 62,5 µM
